- ASSAY_DETAILS: Human HepG2 cell viability assay in 384 well format
- Format: toxicity, cell-based
- Parameters: dose 125 nL, time 70.5 hour; concentration not given beside the values
- TEST_CONDITIONS: HepG2 cells, read-out: Inhibition
# cytotoxicity at 70.5 h per entry
Entry rule: numbers only, all in %.

In: Answer with reported cytotoxicity at 70.5 h of COc1ccc(NC(C)c2nnnn2-c2ccccc2)cc1F (configuration not stated)
Out: -95.4

In: Answer with reported cytotoxicity at 70.5 h of CN1CCC(c2cc(CCO)ncn2)C1 (configuration not stated)
Out: 1.56

In: Answer with reported cytotoxicity at 70.5 h of CCS(=O)(=O)N1CCC(NCC2CNc3cc(C)nn3C2)CC1 (configuration not stated)
Out: 19.2

In: Answer with reported cytotoxicity at 70.5 h of CNc1nc(CNC(=O)Nc2ccc([S+](C)[O-])c(F)c2)cs1 (configuration not stated)
Out: -2.75

In: Answer with reported cytotoxicity at 70.5 h of Cc1ccc(CN2CC[C@H]3[C@H]2CCN3S(C)(=O)=O)s1
Out: -6.63

In: Answer with reported cytotoxicity at 70.5 h of O=C(CCc1nc(-c2ccccc2)no1)N[C@H]1COC[C@@H]1N1CCCC1
Out: -9.03

In: Answer with reported cytotoxicity at 70.5 h of Cc1cnc(CN(C)C2CCN(CCn3cc(C#N)cn3)C2)o1 (configuration not stated)
Out: 7.37

In: Answer with reported cytotoxicity at 70.5 h of Cc1cc(N2CCC(O)CC2)nc(C2CCCN2C)n1 (configuration not stated)
Out: -5.82

In: Answer with reported cytotoxicity at 70.5 h of COc1ccc(S(=O)(=O)NC2(CC(N)=O)CCC2)cc1
Out: 20.9

In: Answer with reported cytotoxicity at 70.5 h of CCc1cc(N(C)CCc2c(C)n[nH]c2C)ncn1
Out: 26.8

***
In: Answer with reported cytotoxicity at 70.5 h of CN(CCCNC(=O)NCc1ccncc1)CC(F)(F)F
Out: -8.47

In: Answer with reported cytotoxicity at 70.5 h of O=C1NC2(CCN(C(=O)c3ccc(Cl)cn3)CC2)CC1c1ccccc1 (configuration not stated)
Out: 8.76
